meta.source: patent US20230150960A1

Readings of solubility for the listed compounds
Assay: Solubility of BSA-containing formulations (post vortexing, 30 min and overnight at 18° C.)
Type: physicochemical
Settings: BSA-containing formulation, 18 °C, aqueous with cosolvent or surfactant or cyclodextrin, compound 2 mg/mL; BSA 80 mg/mL; overnight incubation at 18° C.; read-out: Solubility of BSA-containing formulations after overnight incubation at 18° C., 80 mg/mL

Would you please look over these solved cases?
COMPOUND: CCN1/C(=C/C(C)=C/c2sc3ccccc3[n+]2CC)Sc2ccccc21
TEST RESULT: < 2000 µg/mL

COMPOUND: CCN1/C(=C/C=C/c2oc3ccccc3[n+]2CC)Oc2ccccc21 [JAC-R1, 3′,3′-Diethyloxacarbocyanine iodide]
TEST RESULT: < 2000 µg/mL

// below: solubility requested for another compound
Ask | What does the record list as solubility for CCN1/C(=C/C=C/c2sc3ccccc3[n+]2CC)Sc2ccccc21 [JAC-B1, 3′,3′-Diethylthiacarbocyanine iodide] ?
Reply | > 2000 µg/mL
